Source: patent EP0633893B1

Form field: IC50 (one value per entry).
target desc: 17α-hydroxylase (Homo sapiens)
Construct: The microsomal pellet was then resuspended in 50mM sodium phosphate pH 7.4/glycerol (3/1 v/v) and stored in aliquots in liquid nitrogen; from tissue; host or cells: human testis microsomes
test description: Determination of 17α-hydroxylase (human testicular microsomes, 3H-progesterone substrate, HPLC)
Type: biochemical
assay setup: approx. 4nM enzyme; read-out: IC50 (µM) Hydroxylase
Use µM as the unit, but write only the number.

C[C@]12CCC(=O)C=C1[C@@H](F)C[C@@H]1[C@@H]2CC[C@]2(C)C(c3cccnc3)=CC[C@@H]12 | 0.0053
C[C@]12CCC(=O)C=C1[C@H](F)C[C@@H]1[C@@H]2CC[C@]2(C)C(c3cccnc3)=CC[C@@H]12 | 0.0033
C[C@]12CCC=CC1=CC[C@@H]1[C@@H]2CC[C@]2(C)C(c3cccnc3)=CC[C@@H]12 | 0.0125
C[C@]12CC[C@H](O)CC1=CC[C@@H]1[C@@H]2CC[C@]2(C)C(c3cccnc3)=CC[C@@H]12 | 0.004

Query string: Reported IC50 for 17α-hydroxylase (Homo sapiens), given C[C@]12CCC(=O)C=C1CC[C@@H]1[C@@H]2CC[C@]2(C)C(c3cccnc3)=CC[C@@H]12 ?
Result string: 0.0028

Query string: # iterate: C[C@]12CCC(=O)C=C1CC[C@@H]1[C@@H]2C(=O)C[C@]2(C)C(c3cccnc3)=CC[C@@H]12
Result string: 0.0091

Query string: # iterate: C[C@]12CC[C@@H]3c4ccc(O)cc4CC[C@H]3[C@@H]1CC=C2c1cccnc1
Result string: 0.0026

====

target desc: 17α-hydroxylase (Homo sapiens, UniProt P05093)
Construct: The microsomal pellet was then resuspended in 50mM sodium phosphate pH 7.4/glycerol (3/1 v/v) and stored in aliquots in liquid nitrogen; from tissue; host or cells: human testis microsomes
Sequence (P05093 1-508): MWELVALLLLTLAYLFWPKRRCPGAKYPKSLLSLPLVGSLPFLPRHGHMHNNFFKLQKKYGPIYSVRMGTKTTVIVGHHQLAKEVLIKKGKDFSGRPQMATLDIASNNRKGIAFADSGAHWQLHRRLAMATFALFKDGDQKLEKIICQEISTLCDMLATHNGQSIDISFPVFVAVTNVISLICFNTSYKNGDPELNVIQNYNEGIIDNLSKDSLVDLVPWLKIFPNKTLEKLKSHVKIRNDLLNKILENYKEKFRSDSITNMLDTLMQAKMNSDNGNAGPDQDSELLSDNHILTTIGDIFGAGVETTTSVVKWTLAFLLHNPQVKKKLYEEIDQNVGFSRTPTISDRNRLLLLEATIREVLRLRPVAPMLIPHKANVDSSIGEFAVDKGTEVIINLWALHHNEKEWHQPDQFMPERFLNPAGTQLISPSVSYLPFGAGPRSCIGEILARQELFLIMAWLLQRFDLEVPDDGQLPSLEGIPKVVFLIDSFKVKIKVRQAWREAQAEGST
test description: Determination of 17α-hydroxylase (human testicular microsomes, 3H-progesterone substrate, HPLC)
Type: biochemical
recorded metric: pIC50
Entry type: numeric. Quantity: pIC50, the -log10 of concentration in molar units.

C[C@]12CC[C@H](O)CC1=CC[C@@H]1[C@@H]2CC[C@]2(C)C(c3ccccn3)=CC[C@@H]12 [Example 2-Pyridyl, reference compound] | 6.49

Query string: Reported pIC50 for 17α-hydroxylase (Homo sapiens, UniProt P05093), given C[C@]12CC[C@@H](O)C[C@@H]1CC[C@@H]1[C@@H]2CC[C@]2(C)C(c3cccnc3)=CC[C@@H]12 [Ex. 8, 17-(3-Pyridyl)-5α-androst-16-en-3α-ol] ?
Result string: 8.37
